method summary: Cytotoxicity in H1 cells (cell count)
Type: cell-based
protocol conditions: human, 37° C., 72 hours, Table 2, read-out: CD50
What log10 CC50 at 72 h was measured for each of the following?
Answers are given as log10 of CC50 at 72 h in µM.

Please give log10 CC50 at 72 h for each item listed below.
1. Nc1nc(=O)n([C@@H]2O[C@H](CO)[C@@H](O)[C@@H]2F)cc1I
2. Nc1nc2c(ncn2COC(CO)CO)c(=O)[nH]1
3. Nc1nc2c(ncn2CCC(CO)CO)c(=O)[nH]1
4. Nc1nc(=O)n([C@H]2O[C@@H](CO)[C@H](O)[C@H]2F)cc1I
5. O=c1[nH]c(=O)n([C@@H]2O[C@H](CO)[C@@H](O)[C@@H]2F)cc1I

Result:
1. 2.10
2. 1.88
3. 2.70
4. 2.60
5. 1.30

Please give log10 CC50 at 72 h for each item listed below.
1. O=C(O)P(=O)(O)O
2. Nc1nc2c(ncn2COCCO)c(=O)[nH]1

Result:
1: 3.08; 2: 3.00

----------
Tested on: EBV
method summary: Inhibitory effect of compounds on EBV (virus production in H1 cells, bioassay of EBV DP activity in Raji cells)
Type: cell-based, Epstein-Barr virus
protocol conditions: CD50 in H1 cells / ID90 for EBV
What Therapeutic Index (CD50/ID90) was measured for each of the following?
Give bare numbers.

Some entries whose results are on file:
- smiles notation: "CCc1cn([C@@H]2O[C@H](CO)[C@@H](O)[C@@H]2F)c(=O)[nH]c1=O"
  test system: "EBV"
  Therapeutic Index (CD50/ID90): 2000
- smiles notation: "Nc1nc(=O)n([C@@H]2O[C@H](CO)[C@@H](O)[C@@H]2F)cc1I"
  test system: "EBV"
  Therapeutic Index (CD50/ID90): 25
- smiles notation: "Nc1nc2c(ncn2CCC(CO)CO)c(=O)[nH]1"
  test system: "EBV"
  Therapeutic Index (CD50/ID90): 25

Please give Therapeutic Index (CD50/ID90) for each item listed below.
1. O=c1[nH]c(=O)n([C@@H]2O[C@H](CO)[C@@H](O)[C@@H]2F)cc1I
2. Nc1nc2c(ncn2COC(CO)CO)c(=O)[nH]1

Result:
[40, 15]

Please give Therapeutic Index (CD50/ID90) for each item listed below.
1. Nc1nc2c(ncn2COCCO)c(=O)[nH]1
2. O=C(O)P(=O)(O)O
3. Cc1cn([C@@H]2O[C@H](CO)[C@@H](O)[C@@H]2F)c(=O)[nH]c1=O

Result:
1. 20
2. 16
3. 50
